Target of assay: PfDPCK (Plasmodium falciparum, UniProt Q8IL34)
Sequence (Q8IL34 entry or part of it): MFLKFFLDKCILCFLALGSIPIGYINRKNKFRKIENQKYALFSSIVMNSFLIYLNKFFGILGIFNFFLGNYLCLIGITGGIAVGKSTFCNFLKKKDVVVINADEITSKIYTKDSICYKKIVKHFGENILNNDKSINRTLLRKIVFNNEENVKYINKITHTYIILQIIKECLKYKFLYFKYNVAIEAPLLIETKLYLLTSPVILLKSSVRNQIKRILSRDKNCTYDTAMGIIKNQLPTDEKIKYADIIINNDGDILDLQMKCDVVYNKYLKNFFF
Experimental details: PfDPCK inhibition, enzyme-coupled fluorescence ADP detection assay (HTS and IC50 determination)
Format: biochemical
Protocol: High-throughput screening against recombinant PfDPCK was performed using the Drug Discovery Initiative (DDI) full library, available from The University of Tokyo, composed of approximately 210,000 compounds. […] The reaction was stopped, and produced ADP was quantified using an enzyme-coupled fluorescence ADP detection assay, using PHERAstar microplate reader (BMG Labtech, Offenburg, Germany) with excitation at 540 nm and emission at 590 nm, as previously described ([17]). […]
Listed below: pIC50 values for each entry.
Would you please state pIC50, meaning minus log10 of the concentration in mol/L, as a bare number?

1. CCOC(=O)C1NC(c2ccc[n+](C)c2)C23c4c5c6c7c8c9c(c%10c%11c2c2c4c4c%12c5c5c6c6c8c8c%13c9c9c%10c%10c%11c%11c2c2c4c4c%12c%12c5c5c6c8c6c8c%13c9c9c%10c%10c%11c2c2c4c4c%12c5c6c5c8c9c%10c2c45)C713 (stereo not shown): 5.49

Notebook: CCOC(=O)CN1C(C(=O)OCC)C23c4c5c6c7c8c9c(c%10c%11c2c2c4c4c%12c5c5c6c6c8c8c%13c9c9c%10c%10c%11c%11c2c2c4c4c%12c%12c5c5c6c8c6c8c%13c9c9c%10c%10c%11c2c2c4c4c%12c5c6c5c8c9c%10c2c45)C73C1c1cc[n+](C)cc1 (stereo not shown) , pIC50 read as 5.48

Query O=C(O)C1NC(c2ccncc2)C23c4c5c6c7c8c9c(c%10c%11c2c2c4c4c%12c5c5c6c6c8c8c%13c9c9c%10c%10c%11c%11c2c2c4c4c%12c%12c5c5c6c8c6c8c%13c9c9c%10c%10c%11c2c2c4c4c%12c5c6c5c8c9c%10c2c45)C713 (stereo not shown) yields pIC50 of 5.18

Recorded result, CC1(C)NC(C(=O)O)C23c4c5c6c7c8c9c(c%10c%11c2c2c4c4c%12c5c5c6c6c8c8c%13c9c9c%10c%10c%11c%11c2c2c4c4c%12c%12c5c5c6c8c6c8c%13c9c9c%10c%10c%11c2c2c4c4c%12c5c6c5c8c9c%10c2c45)C713 (stereo not shown) , pIC50: 5.42
